Attribution: patent US11203591B2

As shown below, each of these compounds has a reported IC50 value.
- Test System: human HPK1 (MAP4K1) (Homo sapiens (Human), UniProt Q92918)
- Sequence (Q92918 17-274): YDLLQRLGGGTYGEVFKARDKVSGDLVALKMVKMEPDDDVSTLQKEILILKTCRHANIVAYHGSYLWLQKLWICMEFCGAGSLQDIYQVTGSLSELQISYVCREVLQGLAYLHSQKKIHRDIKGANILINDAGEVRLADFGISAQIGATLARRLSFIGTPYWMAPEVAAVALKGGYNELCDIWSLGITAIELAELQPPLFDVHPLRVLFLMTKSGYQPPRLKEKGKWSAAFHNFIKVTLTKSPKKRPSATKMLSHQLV
- Procedure Summary: HPK1 IC50 Assay (TR-FRET peptide phosphorylation)
- Format: biochemical
- Test Parameters: recombinant HPK1 kinase domain 0.15 nM, 10 μM ATP, 1 μM STK S1 peptide; geometric mean of multiple experiments
- Description: The enzymatic activity of human HPK1 (MAP4K1) was monitored in a biochemical assay in the presence or absence of compounds and using a synthetic peptide substrate. An increase in phosphorylation of the peptide by HPK1 was indicative of its kinase activity. […] Data in Table 1 were normalized based on positive (staurosporine) and negative (DMSO) controls. […] IC50 values from multiple experiments were averaged by geometric mean and the standard deviation was calculated.
Lab book: enter the figure in nM, no units written.

CCC(=O)N1CCC2(CC1)C(=O)N([C@H]1C[C@@H](N3CCCCC3)C1)c1cc(-c3cc4ncn(C(C)C)c4c(Nc4cc(C(=O)NC(C)C)c(C)cc4F)n3)ccc12 [Example 53] : 0.08
CNC(=O)c1cc(Nc2nc(-c3ccc4c(c3)N([C@H]3C[C@@H](NC5CC(F)(F)C5)C3)C(=O)C4(C)C)cc3ncn(C(C)C)c23)ccc1C [Example 81] : 0.3
CNC(=O)c1cc(Nc2nc(-c3ccc4c(c3)N([C@H]3C[C@@H](N5CCCC6(CC6)C5)C3)C(=O)C43CCN(C(C)=O)CC3)cc3ncn(C4CC4)c23)ccc1C [Example 166] : 0.1
CC(C)n1cnc2cc(-c3cnc4c(c3)N([C@H]3C[C@@H](N5CCCCC5)C3)C(=O)C4(C)C)nc(Nc3cc(C(=O)NC4(C(F)F)CC4)c(Cl)c(F)c3F)c21 [Example 245] : 0.1

Then there is this compound:
Would you mind telling me what IC50 value was observed for Cc1cc(F)c(Nc2nc(-c3cnc4c(c3)N([C@H]3C[C@@](C)(N5CCCCC5)C3)CC4(C)C)cc3ncn(C(C)C)c23)cc1C(=O)NC1(C(F)F)CC1 [Example 219] ? 0.2

----------
- Test System: human HPK1 (MAP4K1) (Homo sapiens (Human), UniProt Q92918)
- Procedure Summary: HPK1 IC50 Assay (TR-FRET peptide phosphorylation)
- Type: biochemical
- Test Parameters: recombinant HPK1 kinase domain 0.15 nM, 10 μM ATP, 1 μM STK S1 peptide; geometric mean of multiple experiments
Readout: IC50 (nM)
Lab book: enter the figure in nM, no units written.

Observe how each entry below is paired with its result.
CC(C)n1cnc2cc(-c3cnc4c(c3)N([C@H]3C[C@@](C)(N5CCCCC5)C3)C(=O)C4(C)C)nc(Nc3cc(C(=O)NC4(C(F)F)CC4)cc(F)c3F)c21 : 0.07
Cc1c(C(=O)NC2(C(F)F)CC2)cc(Nc2nc(-c3cnc4c(c3)N([C@H]3C[C@@](C)(N5CCC(F)CC5)C3)C(=O)C4(C)C)cc3ncn(C(C)C)c23)c(F)c1F : 0.1
Cc1c(C(=O)NC2(C(F)F)CC2)cc(Nc2nc(-c3cnc4c(c3)N([C@H]3C[C@@](C)(N5CCOC6(CC6)C5)C3)C(=O)C4(C)C)cc3ncn(C(C)C)c23)c(F)c1F : 0.2
CNC(=O)c1cc(Nc2nc(-c3ccc4c(c3)N([C@H]3C[C@@H](N5CCCCC5)C3)C(=O)C43CCN(C4COC4)CC3)cc3ncn(C(C)C)c23)c(F)cc1C : 0.2

Then there is this molecule:
Would you mind telling me what IC50 value was observed for CNC(=O)c1cc(Nc2nc(-c3ccc4c(c3)N([C@H]3C[C@@H](N5CCCCC5)C3)C(=O)C43CCN(C(=O)C4(C)CCC4)CC3)cc3ncn(C4CC4)c23)ccc1C ? 0.1
